target: recombinant DYRK1A kinase (Homo sapiens (Human), UniProt Q13627); test: DYRK1A kinase assay (Ser/Thr 18 peptide Z-lyte FRET); assay type: biochemical; conditions: 30 μM ATP, 1 h room temperature;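 note: Read-out is the coumarin to fluorescein emission ratio, referenced to unphosphorylated (0%) and phosphorylated (100%) Ser/Thr 18 peptide controls, values from dose-response curves by non-linear regression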
Note to self: EC50 under 10 nM means Condition met, ties and anything higher get Condition not met.

Worked cases, answers included:
- CN(C)c1nnc(-c2ccc3cnc(NC(=O)C4CCNCC4)cc3c2)o1 [Compound 1075]: Condition not met
- Cn1cc(-c2ccc3cnc(NC(=O)[C@H]4CC[C@H](N)CC4)cc3c2)cn1 [Compound 365]: Condition met
- Cn1cc(-c2ccc3cnc(NC(=O)C4CCN(C(=O)CN5CCCC5)CC4)cc3c2)cn1 [Compound 336]: Condition met

Is the reported EC50 for [2H]C([2H])([2H])n1cc(-c2ccc3cnc(NC(=O)CN4CCCC4)cc3c2)cn1 [Compound 305] strictly below 10 nM?
Condition met

Record: CC(C)CN1CCC(C(=O)Nc2cc3cc(-c4cn(C)nn4)ccc3cn2)CC1 [Compound 468]
Condition met

Then what about the molecule Cn1cc(-c2ccc3cnc(NC(=O)CN4CCC(C(F)(F)F)CC4)cc3c2)cn1 [Compound 294] ?
Condition not met

Entry Cc1ncc(-c2ccc3cnc(NC(=O)CCN4CCOCC4)cc3c2)o1 [Compound 1068] please
Condition met

Now try Cn1cc(-c2ccc3cnc(NC(=O)C4CCN(CCC(F)(F)F)CC4)cc3c2)nn1 [Compound 271] .
Condition met

Also need CCn1cc(-c2ccc3cnc(NC(=O)CN4CCCC4)cc3c2)cn1 [Compound 285] , thanks.
Condition not met

Quick one: Cn1cc(-c2ccc3cnc(NC(=O)C4CC4)c(Cl)c3c2)cn1 [Compound 364]
Condition not met

Cool, now Cn1cc(-c2ccc3cnc(NC(=O)CC4CNCCO4)cc3c2)cn1 (centres unmarked) [Compound 349]
Condition met

Follow-up item: C[C@H]1COCCN1CC(=O)Nc1cc2cc(-c3cnn(C)c3)ccc2cn1 [Compound 341]
Condition met

CN1CCN(C(=O)Nc2cc3cc(-c4cnn(C)c4)ccc3cn2)CC1 [Compound 316] ?
Condition met

###

test system: Wnt pathway (Sp5-Luc reporter, TCF/LEF binding sites) in SW480 colon carcinoma cells; assay: Screening assay for Wnt activity: Sp5-Luc reporter gene assay; type: cell-based, human; conditions: Homo sapiens; Sp5-Luc reporter, SW480 cells, 36 to 48 hours;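 note: firefly luciferase luminescence read in stably transduced SW480 cells carrying the Sp5 promoter reporter with eight TCF/LEF sites, compounds given in 0.1% DMSO final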
Observable: pEC50
When answering, recall that pEC50 equals minus log10 of the concentration in mol/L, and write that number alone.

Some entries whose results are on file:
- Cn1cc(-c2ccc3cnc(NC(=O)C4CCNCC4)cc3c2)nn1: 6.10
- Cn1cc(-c2ccc3cnc(NC(=O)N4CN5CCC[C@@H]5C4=O)cc3c2)cn1: 6.02
- Cn1cc(-c2ccc3cnc(NC(=O)[C@H]4CCCNC4)cc3c2)cn1: 5.96
- Cn1cc(-c2ccc3cnc(NC(=O)CN4CC(C)(C)C4)cc3c2)cn1: 5.82
- CC(C(=O)Nc1cc2cc(-c3cncs3)ccc2cn1)N1CCCC1 (centres unmarked): 5.90
- Cn1cc(-c2ccc3cnc(NC(=O)C4CCOCC4)cc3c2)cn1: 6.08
- Cn1cncc1-c1ccc2cnc(NC(=O)C3CCC(F)(F)CC3)cc2c1: 5.89
- O=C(Nc1cc2cc(-c3cnco3)ccc2cn1)C1CCN(C(=O)CN2CCCC2)CC1: 6.06

Hi! What's the reported pEC50 for CN1CC2(CC(C(=O)Nc3cc4cc(-c5cncs5)ccc4cn3)C2)C1 on Wnt pathway (Sp5-Luc reporter, TCF/LEF binding sites) in SW480 colon carcinoma cells?
6.11

Moving on to the next molecule: CNc1ncc(-c2ccc3cnc(NC(=O)C4CCNCC4)cc3c2)s1
5.92

Thanks! And Cn1cc(-c2ccc3cnc(NC(=O)C4CCN(C5CCOCC5)CC4)cc3c2)cn1 ?
6.18
